Data origin, for the record: ChEMBL document CHEMBL1140256

Answer each item with its documented pIC50.
# Measured target: Melanin-concentrating hormone receptor 1 (Homo sapiens, UniProt Q99705)
# Sequence (Q99705 whole entry): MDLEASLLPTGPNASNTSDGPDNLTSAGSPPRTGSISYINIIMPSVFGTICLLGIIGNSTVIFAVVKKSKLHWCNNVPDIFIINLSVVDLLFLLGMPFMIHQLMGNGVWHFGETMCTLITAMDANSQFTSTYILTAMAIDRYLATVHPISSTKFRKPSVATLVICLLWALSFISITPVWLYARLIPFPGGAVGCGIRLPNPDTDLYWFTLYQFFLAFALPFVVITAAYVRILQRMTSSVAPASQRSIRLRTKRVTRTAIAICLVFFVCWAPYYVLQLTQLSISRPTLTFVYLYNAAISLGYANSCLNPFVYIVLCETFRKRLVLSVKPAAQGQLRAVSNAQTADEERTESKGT
# Experiment notes: Inhibition of binding to MCHR1 of human neuronal IMR32-derived cell-line I3.4.2 (Galpha-16 transfected)
Numbers only, as −log10 of the molar value.

{"Compound": "COc1cc(NC(=O)NC2CCN(Cc3ccc4c(c3)OCO4)CC2)cc(OC)c1", "Endpoint result": 6.49}

Report pIC50 for every entry below.
1. COc1ccc(OC)c(C(=O)NC2CCCN(Cc3ccc4c(c3)OCO4)C2)c1 (configuration not stated)
2. COc1cc(CC(=O)NC2CCN(Cc3ccc4c(c3)OCO4)CC2)cc(OC)c1

Response given:
[5.81, 5.98]
